- test.details: Inhibition of Quorum sensing system Las in Pseudomonas aeruginosa PAO1 assessed as reduction in interaction with LasR regulator
Would you mind telling me the reported IC50 of each entry?
One number for each entry, in µM.

For each listed entry, give its IC50.
1. CCCCCCCCCC(=O)NC1CCCC1 [N-CYCLOPENTYLDECANAMIDE]
2. CCCCCCCC(=O)NC1CCCC1

Data returned:
1: 80; 2: 250

----------
- Tested on: Staphylococcus aureus
- test.details: Antibacterial activity against […] Staphylococcus aureus ATCC 29213 assessed as reduction in bacterial growth incubated for 18 hrs by mueller hinton broth dilution method
- Format: functional, organism-based
- details: ATCC 29213, 18 h
measurement.kind: IC50 (µM)
One number for each entry, in µM.

Data request: Query (molecule): "Nc1ncc(C#CC2CCCC2)cn1" ; field requested: IC50
Data returned: 72

----------
- Tested on: Enterococcus faecium
- test.details: Antibacterial activity against Vancomycin-resistant Enterococcus faecium ATCC 51559 assessed as reduction in bacterial growth incubated for 18 hrs by spectrophotometry based analysis
- Type: functional, organism-based
- details: ATCC 51559, 18 h
measurement.kind: pEC50
Give bare numbers, as −log10 of the molar value.

Data request: Query (compound): "Nc1nc2cc(NC(=O)c3c(Cl)c(Cl)c(Cl)c(Cl)c3C(=O)O)ccc2[nH]1" ; field requested: pEC50
Data returned: 4.12

----------
- Tested on: Staphylococcus aureus
- test.details: Antibiofilm activity against Staphylococcus aureus ATCC 25923 assessed as inhibition of biofilm formation
- Type: functional, organism-based
measurement.kind: pIC50
Answers are plain numbers, as −log10 of the molar value.

Data request: Query (compound): "CC(C)(C)OC(=O)NCCn1cc(-c2nc(-c3c[nH]c4ncccc34)cs2)c2ccccc21" ; field requested: pIC50
Data returned: 4.92

----------
- System: Staphylococcus aureus
- test.details: Antibiofilm activity against Methicillin-resistant Staphylococcus aureus ATCC BAA-4A assessed as inhibition of biofilm formation
- Assay type: functional, organism-based
measurement.kind: pIC50
Answers are plain numbers, as −log10 of the molar value.

Example entries and their recorded answers appear below.
[[record]]
chemical_string = "CCCCCc1ccc(C(=O)NCCn2cc(CCCCCc3[nH]cnc3-c3cnc4ccccc4c3)nn2)cc1"
val = 5.43

[[record]]
chemical_string = "CCCCCc1ccc(C(=O)NCCn2cc(CCCCCc3[nH]cnc3-c3ccoc3)nn2)cc1"
val = 5.43


Data request: Query (molecule): "CCCCCc1ccc(C(=O)NCCn2cc(CCCCCc3[nH]cnc3-c3ccc4c(c3)OCO4)nn2)cc1" ; field requested: pIC50
Data returned: 5.43

Reference for the values: ChEMBL document CHEMBL5512599
